- testedTarget: Brd4 (Homo sapiens, UniProt O60885)
- assayInfo: Fluorescence anisotropy competition against bound BODIPY-BI2536
- Format: binding
pKi: −log10 of the molar value.

testSmiles: CCc1ccc(Oc2nccc(-c3c(-c4ccc(F)cc4)ncn3C3CCNCC3)n2)cc1
testedTarget: Brd4 (Homo sapiens, UniProt O60885)
pKi: 4.89

* * *

- testedTarget: 5FW-Brd4 (first bromodomain of Brd4) (Homo sapiens)
- assayInfo: Protein-observed 19F NMR
- Assay type: binding
- conditionContext: 100 μM compound, 50 μM Brd4 and BPTF, 1% DMSO
propertyLabel: Brd4 19F NMR

compound: CCn1c(-c2nonc2N)nc2c(-c3ccccc3)ncc(OCCCN)c21 [GSK260205A]
propertyLabel: Brd4 19F NMR
result: +++

compound: CCc1ccc(Oc2nccc(-c3c(-c4ccc(F)cc4)ncn3C3CCNCC3)n2)cc1
propertyLabel: Brd4 19F NMR
result: +++

compound: COC(=O)c1cccc(NC(=O)NC2CCN(c3ccnc(Nc4ccc(F)cc4)n3)C2)c1 (stereo not shown)
propertyLabel: Brd4 19F NMR
result: -

compound: CN(C)CCOc1ccc(-c2nc(-c3ccncc3)c(-c3ccc4c(c3)CC/C4=N\O)[nH]2)cc1
propertyLabel: Brd4 19F NMR
result: +++

compound: CCn1c(-c2nonc2N)nc2c(C#CCN)ncc(OCCCN)c21 [GSK561866B]
propertyLabel: Brd4 19F NMR
result: -

compound: COC(=O)c1cccc(NC(=O)NC2CCN(c3ccnc(Nc4ccc(OC)cc4)n3)C2)c1 (stereo not shown) [GSK1379746A]
propertyLabel: Brd4 19F NMR
result: -

compound: COC(=O)c1cccc(NC(=O)NC2CCN(c3ccnc(Nc4cc(OC)c(OC)c(OC)c4)n3)C2)c1 (stereo not shown) [GSK1379767A]
propertyLabel: Brd4 19F NMR
result: +++

* * *

- assayInfo: Cell viability assay
- Type: cell-based, human
- conditionContext: human, HEK 293T cells

molecule: COC(=O)c1cccc(NC(=O)NC2CCN(c3ccnc(Nc4ccc(F)cc4)n3)C2)c1 (stereo not shown) [AU1]
viability at 48 h, 10 µM, %: 76

* * *

- testedTarget: 5FW-BPTF bromodomain (Homo sapiens, UniProt Q12830)
- assayInfo: Protein-observed 19F NMR
- Type: binding
- conditionContext: 100 μM compound, 50 μM Brd4 and BPTF, 1% DMSO
propertyLabel: BPTF 19F NMR

molecule: CCn1c(-c2nonc2N)nc2c(-c3ccccc3)ncc(OCCCN)c21 [GSK260205A]
propertyLabel: BPTF 19F NMR
result: +++
//
molecule: COC(=O)c1cccc(NC(=O)NC2CCN(c3ccnc(Nc4ccc(F)cc4)n3)C2)c1 (stereo not shown)
propertyLabel: BPTF 19F NMR
result: +++
//
molecule: CN(C)CCOc1ccc(-c2nc(-c3ccncc3)c(-c3ccc4c(c3)CC/C4=N\O)[nH]2)cc1
propertyLabel: BPTF 19F NMR
result: -
//
molecule: COC(=O)c1cccc(NC(=O)NC2CCN(c3ccnc(Nc4cc(OC)c(OC)c(OC)c4)n3)C2)c1 (stereo not shown) [GSK1379767A]
propertyLabel: BPTF 19F NMR
result: +++
//
molecule: COC(=O)c1cccc(NC(=O)NC2CCN(c3ccnc(Nc4ccc(OC)cc4)n3)C2)c1 (stereo not shown) [GSK1379746A]
propertyLabel: BPTF 19F NMR
result: +++

Cited source: paper PMC4858447
